Read-out: Glutamate-cysteine ligase regulatory (GCLM), GCLM (gene 2730)
Assay: LTEA_HepaRG_GCLM: Life Technologies and Expression Analysis (LTEA) Assay for Glutamate-cysteine ligase regulatory (GCLM) using HepaRG (AID 2283500)
Conditions: mRNA level, 48 h; actives raise or lower the signal
Experimental: LTEA_HepaRG is a cell based, multiplexed-readout assay that uses HepaRG, a human liver cell line, with measurements taken at 48 hours after chemical dosing on a 96-well plate.LTEA_HepaRG_GCLM is one of 102 assay component(s) measured in the LTEA HepaRG cell culture assay. It is a marker of Cell proliferation, survival, death.Data from the assay component LTEA_HepaRG_GCLM was analyzed into 1 endpoint. […]
The source made the active and inactive calls. The calls were made as follows: active = hit-call score of the fitted dose curve at least 0.9, where 1 is the maximum; inactive = score below 0.9.
Measured property: AC50

| Compound | AC50 |
| --- | --- |
| O=[N+]([O-])c1ccc(O)c([N+](=O)[O-])c1 | 12.2 µM (active) |
| Cc1ccccc1N | inactive |
| ClC1(Cl)C2(Cl)C3(Cl)C4(Cl)C(Cl)(Cl)C5(Cl)C3(Cl)C1(Cl)C5(Cl)C24Cl (configuration not stated) | inactive |
| CC(C)(C)CC(C)(C)c1ccc(O)cc1 | inactive |
| O=C(O)C(Cl)(Cl)Cl | inactive |

Kindly give each listed record's AC50.
1. C=C(C)C(=O)[O][Sn]([CH2]CCC)([CH2]CCC)[CH2]CCC
2. C[C@@H]1C[C@@H]([C@H](O)CC2CC(=O)NC(=O)C2)C(=O)[C@@H](C)C1
3. NC(=O)O
4. CC(C)(OO)c1ccccc1
5. CCC(=O)C(CC(C)N(C)C)(c1ccccc1)c1ccccc1 (configuration not stated)
6. O=C(O)C(F)(F)C(F)(F)C(F)(F)C(F)(F)C(F)(F)C(F)(F)F
7. CC(=O)[O][Hg][c]1ccccc1

Result ::
1. 88.7 µM (active)
2. 17.9 µM (active)
3. inactive
4. inactive
5. inactive
6. inactive
7. 23 µM (active)

---

Experiment: CEETOX_H295R_ESTRONE: CeeTox H295R High-throughput Steroidogenesis Assay for Estrone (AID 2283441);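 also: estrone secreted into medium measured by LC-MS/MS after dansyl derivatization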
Conditions: actives raise or lower the signal
The source made the active and inactive calls. The calls were made as follows: active = hit-call score of the fitted dose curve at least 0.9, where 1 is the maximum; inactive = score below 0.9.
Pick from TRUE (active), FALSE (inactive) when you respond.

Take a look at these entries with their results.
| Compound | Assigned label |
| --- | --- |
| CCOP(=S)(OCC)SCCS(=O)(=O)CC | FALSE |
| Oc1ccc(-c2ccccc2)cc1 | FALSE |
| Fc1ccc(C2(Cn3cncn3)OC2c2ccccc2Cl)cc1 (configuration not stated) | TRUE |
| NNC(=S)NN | FALSE |
| CCOP(=S)(OCC)Oc1nc(Cl)c(Cl)cc1Cl | FALSE |

Query :: Recorded test outcome, item "C(=NC1CCCCC1)=NC1CCCCC1"
Result :: FALSE

Query :: Recorded test outcome, item "CCOP(=S)(OCC)SCSP(=S)(OCC)OCC"
Result :: FALSE

---

Read-out: Interleukin-8 (IL8), CXCL8 (gene 3576)
Experiment: BSK_LPS_IL8: BioMAP Diversity Plus: LPS Assay for Interleukin-8 (IL8) Biomarker Activity (AID 2283078)
Settings: primary human HUVEC with PBMC; actives raise or lower the signal
Active and inactive are the calls of the source. Rule for the calls: active = hit-call score of the fitted dose curve at least 0.9, where 1 is the maximum; inactive = score below 0.9.
Pick from active, inactive when you respond.

Take a look at these entries with their results.
| Compound | Assigned label |
| --- | --- |
| CCSC(C)CC1CC(=O)C(C(CC)=NOC/C=C/Cl)=C(O)C1 (centres undefined) | active |
| CC(C)CCCCCCOC(=O)c1ccccc1C(=O)OCCCCCCC(C)C | inactive |
| CCOC(=O)/C=C(C)/C=C/C[C@@H](C)CCCC(C)C | active |

Query :: Recorded test outcome, item "Nc1ncc([N+](=O)[O-])s1"
Result :: inactive

Query :: Recorded test outcome, item "CC(=O)[O][Hg][c]1ccccc1"
Result :: active

Query :: Recorded test outcome, item "ClC(Cl)=C(Cl)C(Cl)=C(Cl)Cl"
Result :: inactive

Query :: Recorded test outcome, item "CC(C)(c1ccccc1)c1ccc(O)c(C(C)(C)c2ccccc2)c1"
Result :: active

Query :: Recorded test outcome, item "Nc1cccc2ccccc12"
Result :: inactive

Query :: Recorded test outcome, item "OCc1ccco1"
Result :: inactive

Query :: Recorded test outcome, item O=C1C2(Cl)C3(Cl)C4(Cl)C(Cl)(Cl)C5(Cl)C3(Cl)C1(Cl)C5(Cl)C24Cl (centres undefined)
Result :: active

Query :: Recorded test outcome, item "Oc1c(I)cc(I)cc1I"
Result :: inactive

Query :: Recorded test outcome, item "O=C(O)C(Cl)(Cl)Cl"
Result :: inactive

Query :: Recorded test outcome, item "CCC(C)(C)c1ccc(O)c(C(C)(C)CC)c1"
Result :: active

Query :: Recorded test outcome, item "NC(=O)O"
Result :: inactive

Query :: Recorded test outcome, item CCC(=O)C(CC(C)N(C)C)(c1ccccc1)c1ccccc1 (centres undefined)
Result :: inactive

Query :: Recorded test outcome, item "COc1cc(OC)nc(NC(=O)NS(=O)(=O)c2ncccc2C(=O)N(C)C)n1"
Result :: inactive

Query :: Recorded test outcome, item "O=S(=O)(c1ccc(Cl)cc1)c1ccc(Cl)cc1"
Result :: inactive

Query :: Recorded test outcome, item "Oc1ccc(-c2ccccc2)cc1"
Result :: inactive

Query :: Recorded test outcome, item "CCCCCCCCc1ccc(O)cc1"
Result :: active

Query :: Recorded test outcome, item "CC(C)(C)c1cc(O)ccc1O"
Result :: active

Query :: Recorded test outcome, item "O=Cc1cccc(Oc2ccccc2)c1"
Result :: inactive

All figures here come from PubChem BioAssay (EPA / NIEHS).
